System: Drosophila melanogaster
assay_procedure: olfactory response index (dipstick assay) (fraction of flies (RI; 1 aversion, 0.5 indifferent, 0 attraction)); higher = stronger aversion to the odorant
condition_context: genotype (tubulin-GAL4 x UAS-RNAi line; control = progenitor): obp 83c; odorant concentration: 1% v/v; female
Binary call on olfactory response index: t from 0.6 upward, f beneath that.

Would you please look over these solved cases?
# compound, group_label
rows = [
    ("CCC=O [propanal]", "t"),
    ("C=C(C)[C@H]1CC=C(C)C(=O)C1 [(S)-carvone]", "f"),
    ("COC(=O)c1ccccc1O [methyl salicylate]", "t"),
]

**Query** Does the reported olfactory response index for CC(=O)c1ccccc1 [acetophenone] fall at or above the 0.6 mark?
**Result** t

**Query** Is olfactory response index at least 0.6? Consider C=C(C)[C@@H]1CC=C(C)C(=O)C1 [(R)-carvone]
**Result** t

**Query** Could you tell me if the measured olfactory response index of CC(C)=CCC/C(C)=C/CO [geraniol] reaches 0.6 or more?
**Result** f

**Query** Evaluate CCOC(C)=O [ethyl acetate] : olfactory response index at minimum 0.6?
**Result** f

**Query** Does the compound CCc1cnccn1 [2-ethylpyrazine] have recorded olfactory response index that is 0.6 or more?
**Result** f

**Query** Quick check, olfactory response index >= 0.6? CCCCCC(C)=O [2-heptanone]
**Result** f

---

Tested on: Drosophila melanogaster
assay_procedure: olfactory response index (dipstick assay) (fraction of flies (RI; 1 aversion, 0.5 indifferent, 0 attraction)); higher = stronger aversion to the odorant
condition_context: genotype (tubulin-GAL4 x UAS-RNAi line; control = progenitor): obp 56c; odorant concentration: 1% v/v; male
The entries below come with measured olfactory response index values attached.

Previously resolved entries follow.
# molecule, measurement_kind, assay_value
rows = [
    ("C=C(C)[C@@H]1CC=C(C)C(=O)C1 [(R)-carvone]", "olfactory response index", 0.158),
    ("OCCc1ccccc1", "olfactory response index", 0.0551),
]

**Query** What olfactory response index value was documented for this molecule, CC(=O)c1ccccc1 ?
**Result** 0.265

**Query** Quick one: olfactory response index of CCOC(C)=O [ethyl acetate] ?
**Result** 0.17

**Query** Record request: olfactory response index value, item Cc1cnccn1
**Result** 0.293

---

Tested on: Drosophila melanogaster
assay_procedure: olfactory response index (dipstick assay) (fraction of flies (RI; 1 aversion, 0.5 indifferent, 0 attraction)); higher = stronger aversion to the odorant
condition_context: genotype (tubulin-GAL4 x UAS-RNAi line; control = progenitor): obp 99b; odorant concentration: 1% v/v; female
Label yes when olfactory response index is at or above 0.3; otherwise label no.

# compound, group_label
records = [
    ("CCc1cnccn1", "no"),
    ("CC(C)=CCCC(C)=CC=O (mixture of isomers)", "yes"),
    ("CC(=O)c1ccccc1", "yes"),
    ("C=C(C)[C@H]1CC=C(C)C(=O)C1 [(S)-carvone]", "yes"),
    ("CC(C)=CCC/C(C)=C/CO", "yes"),
]

**Query** Dear colleague, could you confirm whether CCCCCC(C)=O has olfactory response index at or above 0.3?
**Result** no

**Query** Kindly determine if olfactory response index recorded for CCC=O is above or exactly 0.3.
**Result** yes

---

olfactory response index values for the molecules below.
Test system: Drosophila melanogaster
assay_procedure: olfactory response index (dipstick assay) (fraction of flies (RI; 1 aversion, 0.5 indifferent, 0 attraction)); higher = stronger aversion to the odorant
condition_context: genotype (tubulin-GAL4 x UAS-RNAi line; control = progenitor): obp 57a; odorant concentration: 1% v/v; male
The reply should be a number, written without any unit.

**Query** Query the reported olfactory response index for Drosophila melanogaster; item: OCCc1ccccc1
**Result** 0.0379

**Query** // fetch Drosophila melanogaster olfactory response index for CCOC(C)=O [ethyl acetate]
**Result** 0.236

**Query** Param readout= olfactory response index; system= Drosophila melanogaster; entry= CCCCCC(C)=O ; returns value.
**Result** 0.214

---

Test system: Drosophila melanogaster
assay_procedure: olfactory response index (dipstick assay) (fraction of flies (RI; 1 aversion, 0.5 indifferent, 0 attraction)); higher = stronger aversion to the odorant
condition_context: genotype (tubulin-GAL4 x UAS-RNAi line; control = progenitor): obp 56c; odorant concentration: 1% v/v; male
Assign class by olfactory response index: not lower than 0.2 means 1.0; lower than 0.2 means 0.0.

Would you please look over these solved cases?
# compound, group_label
data = [
    ("CC(C)=CCC/C(C)=C/CO", 0.0),
    ("C=C(C)[C@H]1CC=C(C)C(=O)C1 [(S)-carvone]", 0.0),
    ("CCCCCC(C)=O", 1.0),
]

Now let's try a different one.
**Query** Tell me whether olfactory response index is at least 0.2 here: CCC=O
**Result** 0.0

---

Measured olfactory response index, listed per entry for reference.
System: Drosophila melanogaster
assay_procedure: olfactory response index (dipstick assay) (fraction of flies (RI; 1 aversion, 0.5 indifferent, 0 attraction)); higher = stronger aversion to the odorant
condition_context: genotype (tubulin-GAL4 x UAS-RNAi line; control = progenitor): obp 99b; odorant concentration: 1% v/v; female

**Query** Short answer please: olfactory response index, Drosophila melanogaster, entry COC(=O)c1ccccc1O [methyl salicylate]
**Result** 0.308

**Query** Record Cc1cnccn1 : what is its olfactory response index with Drosophila melanogaster?
**Result** 0.381

**Query** Notebook entry, Drosophila melanogaster assay: olfactory response index of OCCc1ccccc1 = ?
**Result** 0.0815

**Query** Kindly state the measured olfactory response index obtained for CC(=O)OCCC(C)C [isoamyl acetate] with Drosophila melanogaster.
**Result** 0.499

// data source = the supplement of paper PMC3150612
